Assignment: determine reported KD Relative to Dupilumab for the given binders.
Biological target: T1, cynomolgus monkey IL-4Rα (cynomolgus monkey, UniProt P24394 26-231 (human entry), limits assumed)
T1 construct: also called Cyno IL-4Rα; cyIL-4Rα
T1 chain: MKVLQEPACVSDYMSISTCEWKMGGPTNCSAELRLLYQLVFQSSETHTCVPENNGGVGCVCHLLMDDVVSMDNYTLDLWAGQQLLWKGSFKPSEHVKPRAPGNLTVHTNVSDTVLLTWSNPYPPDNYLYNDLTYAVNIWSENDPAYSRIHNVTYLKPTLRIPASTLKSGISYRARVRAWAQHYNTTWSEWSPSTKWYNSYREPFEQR
Experiment: SPR, Carterra LSA;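 note: antibodies captured on an anti-human Fc sensor chip, antigen injected at several concentrations, association and dissociation rates fitted with a 1:1 Langmuir model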
Give bare numbers.

Hi there! I need KD Relative to Dupilumab for each item below, if you can.
1. Construct 39 (mAb473) (antibody, IgG4, V domains shown, VH/VL only) VH: EVQLVESGGGLEQPGGSLRLSCAGSGFTFRDSAMTWVRQAPGKGLEWVSSISGSGDNTYYADSVKGRFTISRDNSKNTLYLQMNSLRAEDTAVYYCAKDRLSITVRPRYYGLDVWGQGTTVTVSS VL: DIVMTQSPLSLPVTPGEPASISCRSSQSLLYSIGKNYVDWYLQKSGQSPQLLIYLGNKRASGVPDRFSGSGSGTDFTLKISRVEAEDVGFYYCMQALGSPYTFGQGTKLEIK
2. Construct 13 (mAb422) (antibody, IgG4, V domains shown, VH/VL only) VH: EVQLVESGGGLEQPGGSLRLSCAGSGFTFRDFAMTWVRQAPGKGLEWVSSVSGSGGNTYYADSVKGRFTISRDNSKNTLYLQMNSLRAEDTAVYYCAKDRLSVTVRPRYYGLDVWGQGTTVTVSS VL: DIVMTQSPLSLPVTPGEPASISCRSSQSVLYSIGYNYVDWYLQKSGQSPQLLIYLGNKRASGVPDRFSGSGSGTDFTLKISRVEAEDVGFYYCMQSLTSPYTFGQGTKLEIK

0.27
0.02

Hey, quick one: what's KD Relative to Dupilumab for each of these?
1. Construct 28 (mAb436) (antibody, IgG4, V domains shown, VH/VL only) VH: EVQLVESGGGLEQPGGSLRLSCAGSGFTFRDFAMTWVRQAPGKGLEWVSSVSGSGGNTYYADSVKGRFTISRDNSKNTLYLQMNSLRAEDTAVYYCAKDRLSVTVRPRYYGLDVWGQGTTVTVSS VL: DIVMTQSPLSLPVTPGEPASISCTSSQSLLYSIGYNYVDWYLQKSGQSPQLLIYLGNKRASGVPDRFSGSGSGTDFTLKISRVEAEDVGFYYCMQSLQTPYTFGQGTKLEIK
2. Construct 32 (mAb446) (antibody, IgG4, V domains shown, VH/VL only) VH: EVQLVESGGGLEQPGGSLRLSCAGSGFTFRDFAMTWVRQAPGKGLEWVSSVSGDGGNTYYADSVKGRFTISRDNSKNTLYLQMNSLRAEDTAVYYCAKDRLSVTVRPRYYGLDVWGQGTTVTVSS VL: DIVMTQSPLSLPVTPGEPASISCRSSQSLLYSNGYNYLDWYLQKSGQSPQLLIYLSSNRASGVPDRFSGSGSGTDFTLKISRVEAEDVGFYYCMQAFQAPYTFGQGTKLEIK
3. Construct 22 (mAb430) (antibody, IgG4, V domains shown, VH/VL only) VH: EVQLVESGGGLEQPGGSLRLSCAGSGFTFRDFAMTWVRQAPGKGLEWVSSISGSGSSTYYADSVKGRFTISRDNSKNTLYLQMNSLRAEDTAVYYCAKDRLSVTVRPRYYGLDVWGQGTTVTVSS VL: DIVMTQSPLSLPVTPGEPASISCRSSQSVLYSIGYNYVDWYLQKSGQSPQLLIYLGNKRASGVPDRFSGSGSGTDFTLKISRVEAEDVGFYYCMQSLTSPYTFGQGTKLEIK

1: 0.09; 2: 1.58; 3: 0.05
